Listed below: EC50 values for each entry.
# Test system: human β3 adrenergic receptor (Homo sapiens)
# Construct: expressed in transfected cells; host or cells: Chinese hamster ovary (CHO) cells, stably transfected
# Assay remarks: Beta-3 agonist in vitro functional assay: cAMP production (LANCE TR-FRET) in CHO cells stably transfected with the cloned β3 receptor
# Type: cell-based
# Condition notes: Table 8; Beta-3 agonist in vitro functional assay; read-out: Human β3 agonist functional activity

Molecule	EC50
O=C1CC2(CCN(C(=O)c3ccc(C[C@@H]4CC[C@H]([C@H](O)c5ccccc5)N4)cc3)CC2)S(=O)(=O)c2ccccc21	1 to 9.9 nM
O=C(c1ccc(C[C@@H]2CC[C@H]([C@H](O)c3ccccc3)N2)cc1)N1CCC2(CC1)C(=O)NCC2c1ccccc1 (stereo partly drawn)	< 1 nM
O=C(c1ccc(C[C@@H]2CC[C@H]([C@H](O)c3ccccc3)N2)cc1)N1CCC2(CC1)CCN(Cc1ccccc1)C2=O	1 to 9.9 nM
O=C1OC2(CCN(C(=O)c3ccc(C[C@@H]4CC[C@H]([C@H](O)c5ccccc5)N4)cc3)CC2)CC1Cc1ccc(F)cc1 (stereo partly drawn)	1 to 9.9 nM
O=C(c1ccc(C[C@@H]2CC[C@H]([C@H](O)c3ccccc3)N2)cc1)N1CCC(C(=O)O)(c2ccccc2)CC1	100 to 999 nM

Qu. Would you mind telling me what EC50 value was observed for `O=C1CC2(CCN(C(=O)c3ccc(C[C@@H]4CC[C@H]([C@H](O)c5ccccc5)N4)cc3)CC2)S(=O)(=O)c2sccc21` ?
Ans. 1 to 9.9 nM

* * *

# Test system: human β3 adrenergic receptor (Homo sapiens, UniProt P13945)
# Construct: expressed in transfected cells; host or cells: Chinese hamster ovary (CHO) cells, stably transfected
# Sequence (P13945 whole entry): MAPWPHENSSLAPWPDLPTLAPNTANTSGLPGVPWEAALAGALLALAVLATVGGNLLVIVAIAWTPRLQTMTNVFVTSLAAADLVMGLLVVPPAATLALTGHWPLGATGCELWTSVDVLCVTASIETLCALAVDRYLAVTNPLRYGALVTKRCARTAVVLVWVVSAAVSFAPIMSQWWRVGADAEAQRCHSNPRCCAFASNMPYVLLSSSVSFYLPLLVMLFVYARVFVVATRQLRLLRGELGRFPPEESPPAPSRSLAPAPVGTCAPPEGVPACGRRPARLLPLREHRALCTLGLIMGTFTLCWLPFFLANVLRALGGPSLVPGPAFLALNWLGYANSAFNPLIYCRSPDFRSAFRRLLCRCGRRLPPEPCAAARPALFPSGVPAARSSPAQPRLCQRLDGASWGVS
# Assay remarks: Beta-3 agonist in vitro functional assay: cAMP production (LANCE TR-FRET) in CHO cells stably transfected with the cloned β3 receptor
# Format: cell-based
# Condition notes: Table 5; cAMP, CHO cells; read-out: Human β3 agonist functional activity
Property label: EC50

Qu. Tell me the measured EC50 of `Cc1nnn(C2CCN(C(=O)c3ccc(C[C@@H]4CC[C@H]([C@H](O)c5ccccc5)N4)cc3)CC2)n1` , please.
Ans. 100 to 999 nM

Qu. Which EC50 is listed for `O=C(c1ccc(C[C@@H]2CC[C@H]([C@H](O)c3cccnc3)N2)cc1)N1CCC(n2cc(-c3ccccc3)[nH]c2=O)CC1` ?
Ans. 10 to 99.9 nM

Qu. Any idea what EC50 was measured for `Cn1nnnc1C1CCN(C(=O)c2ccc(C[C@@H]3CC[C@H]([C@H](O)c4ccccc4)N3)cc2)CC1` ?
Ans. 1 to 9.9 nM

Qu. Need EC50, item `O=C(c1ccc(C[C@@H]2CC[C@H]([C@H](O)c3cccnc3)N2)cc1)N1CCC(S(=O)(=O)c2ccccc2F)CC1`
Ans. 10 to 99.9 nM

Qu. Endpoint output: EC50 of `O=C(c1ccc(C[C@@H]2CC[C@H]([C@H](O)c3cccnc3)N2)cc1)N1CCC(N2C(=O)OCc3ccccc32)CC1` . Value?
Ans. 1 to 9.9 nM

Qu. What EC50 value was documented for this molecule, `O=C(c1ccc(C[C@@H]2CC[C@H]([C@H](O)c3ccccc3)N2)cc1)N1CCC(c2nnnn2C2CC2)CC1` ?
Ans. < 1 nM

Qu. I would be grateful if you could share the reported EC50 for `O=C(c1ccc(C[C@@H]2CC[C@H]([C@H](O)c3cccnc3)N2)cc1)N1CCC(n2nccn2)CC1` .
Ans. 100 to 999 nM

Qu. Could you tell me which EC50 is on file for `O=C(c1ccc(C[C@@H]2CC[C@H]([C@H](O)c3ccccc3)N2)cc1)N1CCC(n2cncn2)CC1` ?
Ans. 10 to 99.9 nM

Qu. What measured EC50 goes with `COc1ccc(CC2CCN(C(=O)c3ccc(C[C@@H]4CC[C@H]([C@H](O)c5ccccc5)N4)cc3)CC2)cc1F` ?
Ans. 10 to 99.9 nM

Qu. Give its EC50 value. Item: `O=C(c1ccc(C[C@@H]2CC[C@H]([C@H](O)c3ccccc3)N2)cc1)N1CCC(S(=O)(=O)c2ccc(F)cc2)CC1`
Ans. 10 to 99.9 nM

Qu. For the molecule `O=C(c1ncc(-c2cccc(F)n2)o1)C1CCN(C(=O)c2ccc(C[C@@H]3CC[C@H]([C@H](O)c4ccccc4)N3)cc2)CC1` , what EC50 is on record?
Ans. 1 to 9.9 nM

Qu. Report EC50 for `CN(C)C(=O)c1cc(OC2CCN(C(=O)c3ccc(C[C@@H]4CC[C@H]([C@H](O)c5ccccc5)N4)cc3)CC2)no1` please.
Ans. 100 to 999 nM

Qu. Item under review: `O=C(c1ccc(C[C@@H]2CC[C@H]([C@H](O)c3ccccc3)N2)cc1)N1CCC(S(=O)(=O)c2cc(F)ccc2F)CC1` . Reported EC50?
Ans. 10 to 99.9 nM
